The values you see were collected from ChEMBL document CHEMBL4033792.

target: Toll-like receptor 4 (Homo sapiens, UniProt O00206); assay: Antagonist activity at human TLR4 expressed in HEK blue cells assessed as inhibition of LPS-induced NF-kappaB activation-mediated SEAP production preincubated for 30 mins followed by LPS addition measured after overnight incubation in absence of light by NF-kappaB reporter gene assay
Sequence (O00206 whole entry): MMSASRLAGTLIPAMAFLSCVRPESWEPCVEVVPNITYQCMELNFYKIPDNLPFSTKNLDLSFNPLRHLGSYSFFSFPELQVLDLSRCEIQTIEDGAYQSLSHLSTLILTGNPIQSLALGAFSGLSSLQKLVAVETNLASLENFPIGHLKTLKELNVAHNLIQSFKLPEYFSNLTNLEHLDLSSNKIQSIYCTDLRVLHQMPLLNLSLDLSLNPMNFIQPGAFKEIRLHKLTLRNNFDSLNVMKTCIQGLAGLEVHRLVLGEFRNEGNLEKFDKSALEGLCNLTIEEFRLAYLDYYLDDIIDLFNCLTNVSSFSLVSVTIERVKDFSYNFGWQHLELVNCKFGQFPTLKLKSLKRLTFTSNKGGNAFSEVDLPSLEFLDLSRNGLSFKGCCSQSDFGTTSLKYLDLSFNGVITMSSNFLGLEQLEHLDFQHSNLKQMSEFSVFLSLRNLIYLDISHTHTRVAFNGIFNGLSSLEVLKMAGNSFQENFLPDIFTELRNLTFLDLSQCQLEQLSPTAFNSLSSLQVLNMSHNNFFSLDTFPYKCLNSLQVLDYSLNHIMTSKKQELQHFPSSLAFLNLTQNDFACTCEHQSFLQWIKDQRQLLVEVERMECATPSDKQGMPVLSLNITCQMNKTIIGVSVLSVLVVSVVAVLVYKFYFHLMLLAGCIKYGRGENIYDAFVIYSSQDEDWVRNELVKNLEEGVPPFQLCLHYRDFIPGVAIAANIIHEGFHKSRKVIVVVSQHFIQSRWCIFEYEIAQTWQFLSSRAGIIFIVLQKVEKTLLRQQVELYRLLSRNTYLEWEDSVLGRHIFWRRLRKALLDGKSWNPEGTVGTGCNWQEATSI
propertyMeasured: pIC50
Worth noting: pIC50 values are minus log10 of concentrations stated in mol/L.

| smilesString | pIC50 |
| --- | --- |
| CCCCCCCCCC(=O)N[C@H]1[C@@H](OP(=O)([O-])O)O[C@H](CO)[C@@H](OP(=O)([O-])O)[C@@H]1OC(=O)CCCCCCCCC.[Na+].[Na+] | 5.26 |

What the record says about `CCCCCCCCCCCC(=O)N[C@H]1[C@@H](OP(=O)([O-])O)O[C@H](CO)[C@@H](OP(=O)([O-])O)[C@@H]1OC(=O)CCCCCCCCCCC.[Na+].[Na+]` : pIC50 is 6.20

What the record says about `CCCCCCCCCCCCCC(=O)N[C@H]1[C@@H](OP(=O)(O)O)O[C@H](CO)[C@@H](OP(=O)(O)O)[C@@H]1OC(=O)CCCCCCCCCCCCC` : pIC50 is 5.70

====

target: Toll-like receptor 4 (Mus musculus); experiment: Antagonist activity at TLR4 in mouse RAW blue cells assessed as inhibition of LPS-induced NF-kappaB activation-mediated SEAP production preincubated for 30 mins followed by LPS addition measured after 16 hrs by NF-kappaB reporter gene assay
propertyMeasured: IC50
In your response, the unit should come after the numeric value.

| smilesString | IC50 |
| --- | --- |
| CCCCCCCCCCCCCC(=O)N[C@H]1[C@@H](OP(=O)(O)O)O[C@H](CO)[C@@H](OP(=O)(O)O)[C@@H]1OC(=O)CCCCCCCCCCCCC | 7.7 µM |

What the record says about `CCCCCCCCCC(=O)N[C@H]1[C@@H](OP(=O)([O-])O)O[C@H](CO)[C@@H](OP(=O)([O-])O)[C@@H]1OC(=O)CCCCCCCCC.[Na+].[Na+]` : IC50 is 42 µM

What the record says about `CCCCCCCCCCCC(=O)N[C@H]1[C@@H](OP(=O)([O-])O)O[C@H](CO)[C@@H](OP(=O)([O-])O)[C@@H]1OC(=O)CCCCCCCCCCC.[Na+].[Na+]` : IC50 is 1.7 µM

====

test system: THP-1; assay: Cytotoxicity against human THP1 cells assessed as reduction in cell viability up to 10 uM after 24 hrs in absence of LPS by MTT asssay; type: cell-based; settings: thp-1, 24 h

| smilesString | Activity |
| --- | --- |
| CCCCCCCCCCCCCC(=O)N[C@H]1[C@@H](OP(=O)(O)O)O[C@H](CO)[C@@H](OP(=O)(O)O)[C@@H]1OC(=O)CCCCCCCCCCCCC | Non-Toxic |
| CCCCCCCCCCCCCCCC(=O)N[C@H]1[C@@H](OP(=O)([O-])O)O[C@H](CO)[C@@H](OP(=O)([O-])O)[C@@H]1OC(=O)CCCCCCCCCCCCCCC.[Na+].[Na+] | Non-Toxic |
| CCCCCCCCCCCC(=O)N[C@H]1[C@@H](OP(=O)([O-])O)O[C@H](CO)[C@@H](OP(=O)([O-])O)[C@@H]1OC(=O)CCCCCCCCCCC.[Na+].[Na+] | Non-Toxic |
| CCCCCCCCCC(=O)N[C@H]1[C@@H](OP(=O)([O-])O)O[C@H](CO)[C@@H](OP(=O)([O-])O)[C@@H]1OC(=O)CCCCCCCCC.[Na+].[Na+] | Non-Toxic |
